Entries annotated with measured melting point

# ENTRY SMILES, melting point
records = [
    ("CCCn1c(=O)n(CC(=O)N(CC)c2ccccc2)c2nc(-c3ccccc3)ncc21", "140 to 142 °C"),
    ("CCCCn1c(=O)n(CC(=O)N(CCC)CCC)c2nc(-c3ccccc3)ncc21", "129 to 130 °C"),
    ("CCn1c(=O)n(CC(=O)N(C)C)c2nc(-c3ccccc3)ncc21", "187 to 189 °C"),
    ("CCCCN(C(=O)Cn1c(=O)n(C)c2nc(-c3ccccc3)ncc21)c1ccccc1", "207 to 209 °C"),
    ("CCCN(CCC)C(=O)Cn1c(=O)n(C)c2nc(-c3ccc(F)cc3)ncc21", "154 to 155 °C"),
    ("CCCn1c(=O)n(CC(=O)N(CC)c2ccccc2)c2cnc(-c3ccccc3)nc21", "138 to 139 °C"),
    ("CCN(C(=O)Cn1c(=O)n(C)c2nc(-c3ccc(OC)cc3)ncc21)c1ccccc1", "179 to 181 °C"),
    ("CCN(Cc1ccccc1)C(=O)Cn1c(=O)n(C)c2nc(-c3ccc(F)cc3)ncc21", "155 to 157 °C"),
    ("CCCN(CC)C(=O)Cn1c(=O)n(C)c2nc(-c3ccccc3)ncc21", "150 to 151 °C"),
    ("CCN(CC)C(=O)Cn1c(=O)n(C)c2cnc(-c3ccccc3)nc21", "204 to 206 °C"),
    ("CN(C(=O)Cn1c(=O)n(C)c2nc(-c3ccc(Cl)cc3)ncc21)c1ccccc1", "188 to 190 °C"),
    ("CCN(C(=O)Cn1c(=O)[nH]c2nc(-c3ccccc3)ncc21)c1ccccc1", "281 to 284 °C"),
    ("CCN(Cc1ccc(F)cc1)C(=O)Cn1c(=O)n(C)c2nc(-c3ccccc3)ncc21", "166 to 167 °C"),
    ("CCCn1c(=O)n(CC(=O)N(C)c2ccccc2)c2nc(-c3ccccc3)ncc21", "183 to 185 °C"),
    ("CCN(C(=O)Cn1c(=O)n(C)c2cnc(-c3ccccc3)nc21)c1ccccc1", "180 to 181 °C"),
    ("CCN(C(=O)Cn1c(=O)n(CC)c2nc(-c3ccccc3)ncc21)c1ccccc1", "165 to 167 °C"),
    ("CN(C(=O)Cn1c(=O)[nH]c2cnc(-c3ccccc3)nc21)c1ccccc1", "286 to 287 °C"),
]

Data provenance is patent US6372740B1.
